- Organism: Mus musculus
- MEASUREMENT_NOTES: Transport influx which is determined by competitive binding for the transport protein; expressed as Ki (uM)
MEASUREMENT_LABEL: Ki

input: Given the molecule CN(Cc1cnc2nc(N)nc(N)c2n1)c1ccc(C(=O)N[C@@H](CCC(=O)O)C(=O)O)cc1 [METHOTREXATE] , write its reported Ki.
output: 4.2 µM

input: Given the molecule CC(Cc1cnc2nc(N)nc(N)c2n1)c1ccc(C(=O)NC(CCC(=O)O)C(=O)O)cc1 (centres undefined) , write its reported Ki.
output: 0.95 µM

input: Given the molecule `Nc1nc(N)c2nc(CCc3ccc(C(=O)N[C@@H](CCC(=O)O)C(=O)O)cc3)cnc2n1` , write its reported Ki.
output: 0.9 µM

input: Given the molecule C#CCC(Cc1cnc2nc(N)nc(N)c2n1)c1ccc(C(=O)NC(CCC(=O)O)C(=O)O)cc1 (centres undefined) , write its reported Ki.
output: 0.45 µM

* * *

- System: L1210
- MEASUREMENT_NOTES: Inhibition of growth in L1210 murine leukemia cells in culture expressed as IC50 (nM)
- Type: functional, cell-based
- MEASUREMENT_PARAMETERS: Mus musculus
MEASUREMENT_LABEL: pIC50
Lab note: report pIC50 as minus log10 of the concentration in molar units, number only.

Before answering, review these 2 worked examples.
CN(Cc1cnc2nc(N)nc(N)c2n1)c1ccc(C(=O)N[C@@H](CCC(=O)O)C(=O)O)cc1 [METHOTREXATE]
8.02
CCCCCC(Cc1cnc2nc(N)nc(N)c2n1)c1ccc(C(=O)NC(CCC(=O)O)C(=O)O)cc1 (stereo not drawn)
6.60

As a next step, examine the molecule that follows.
input: Given the molecule CCCC(Cc1cnc2nc(N)nc(N)c2n1)c1ccc(C(=O)NC(CCC(=O)O)C(=O)O)cc1 (stereo not drawn) , write its reported pIC50.
output: 8.69
